- procedure_summary: Clearance in rat hepatocytes
- Assay type: in vitro ADME
- condition_set: test compound 0.5 μM, 1×10^6 cells/mL, scaled to rat body weight
- Description: Test compound concentration is 0.5 μM and cell concentration is 1×10^6 cells/mL in the incubation. The described method is manual and is based on a 24-well format. The liver is collected from a male Spraque-Dawley rat. […] The 24-well plates are centrifuged. Test compound depletion, using a compound specific LC/MS/MS method, is determined. […] Intrinsic clearance (Clint) (mL/min/10^6 cells) is calculated from: Clint=k/c (Eq. 2) where c is the cell concentration in 10^6 cells/mL. […]
observed_property: Clearance (Clapp) in rat hepatocytes

COc1cc([C@@H](C)NC2CC[C@H](c3ccc(CCC(=O)O)c(C(F)(F)F)c3)C2)ccc1F (single isomer, unassigned) : A (A: <30 mL/min/kg)
C[C@@H](NC1CCC(c2ccc(CCC(=O)O)c(C(F)(F)F)c2)C1)c1cccc2ccccc12 (single isomer, unassigned) : B (B: 30-55 mL/min/kg)
COc1cc([C@@H](C)NC2CC[C@H](c3ccc(OCC(=O)O)c(C(F)(F)F)c3)C2)ccc1F (mixture of isomers) : A (A: <30 mL/min/kg)
COc1cc([C@@H](C)NC2CC[C@@H](c3cc(OCC(=O)O)cc(C(F)(F)F)c3)C2)ccc1F (single isomer, unassigned) : A (A: <30 mL/min/kg)

Let's switch to this compound now.
Recorded Clearance (Clapp) in rat hepatocytes for C[C@@H](NC1CC[C@@H](c2cc(OCC(=O)O)cc(C(F)(F)F)c2)C1)c1cccc2ccccc12 (single isomer, unassigned) , please?
B (B: 30-55 mL/min/kg)
